Items are presented alongside their recorded SPOT peptide array binding signal intensity.
biological target: ScBzz1-D1; assay: SPOT peptide array binding signal intensity (averaged, normalized) (arbitrary units (background-subtracted, floor 0; scale differs between SH3 domains)); higher = stronger binding of the SH3 domain to the peptide

Below are worked cases with known answers.
binder: QLLNPNRRAPRRPLS
experimental result: 56
//
binder: FIRKRAPTPPAPSRS
experimental result: 160
//
binder: AAAPKHAPPPVPNET
experimental result: 413

Proceeding to the next binder to report its SPOT peptide array binding signal intensity.
Which SPOT peptide array binding signal intensity is reported for this binder? `RAPPPVPKKPSSRIA`
565

Data origin, for the record: the supplement of paper PMC4466140
